# System: SN12C renal
# MEASUREMENT_PROTOCOL: NCI-60 one-dose screen, 48 h (100 = growth as untreated, 0 = no growth, -100 = all killed)
# ASSAY_SETUP: 10 µM unless noted
Compounds without any hit were thinned out: in the full panel of roughly 83,000, 20% have a hit. The source made the active and inactive calls. Rule for the calls: active = growth percent below 10; inactive = the rest.
PROPERTY: growth

Ask | Report growth for Cc1ccc(C(SCC(N)C(=O)O)(c2ccccc2)c2ccc(C)cc2)cc1 (stereo not drawn) please.
Reply | 29.9% (inactive)

Ask | What would you report for COc1ccc(-c2nc3ccc(-c4nc5ccc(N6CCN(c7ccncc7)CC6)cc5[nH]4)cc3[nH]2)cc1OC ?
Reply | 45.2% (inactive)

Ask | What would you report for CON1C(=O)CC[C@]2(C)[C@H]3CC[C@@H]4C([C@@]5(C)CCC(=O)O5)CC[C@@]4(C)[C@]3(C)CC[C@H]2C1(C)C (stereo partly drawn) ?
Reply | 95.2% (inactive)
